- Tested on: ACHN renal
- MEASUREMENT NOTES: NCI tumour cell line growth inhibition, 48 h

>  <MOLECULAR STRING>
O=C(O)c1cc(O)c2c(c1)Cc1cccc(O)c1C2=O

>  <SYSTEM UNDER TEST>
ACHN renal

>  <TGI>
34.8 µM

$$$$
>  <MOLECULAR STRING>
Nc1nc(N)c2nc(-c3ccco3)cnc2n1

>  <SYSTEM UNDER TEST>
ACHN renal

>  <TGI>
> 100 µM

$$$$
>  <MOLECULAR STRING>
O=C(Nc1ccc(Cl)cc1)c1cc2cc(F)ccc2cc1O

>  <SYSTEM UNDER TEST>
ACHN renal

>  <TGI>
7.07 µM

$$$$
>  <MOLECULAR STRING>
CCOC(=O)/C(C#N)=C\C=C1/C=CNC2=NCCN21

>  <SYSTEM UNDER TEST>
ACHN renal

>  <TGI>
> 100 µM

$$$$
>  <MOLECULAR STRING>
CC(=O)NNC(=S)/N=C/c1c(O)cc(C)oc1=O

>  <SYSTEM UNDER TEST>
ACHN renal

>  <TGI>
> 100 µM

$$$$
>  <MOLECULAR STRING>
Cc1ccc(S(=O)(=O)/N=C(\[O-])C2=C(c3ccccc3)NN(C)c3nc4cccc[n+]4nc32)cc1

>  <SYSTEM UNDER TEST>
ACHN renal

>  <TGI>
> 100 µM

$$$$
